System: SNB-19
assayProcedure: NCI tumour cell line growth inhibition, 48 h
The source made the active and inactive calls. Rule as the data show it: active = GI50 up to about 1.1 µM and inactive = higher.
quantityMeasured: GI50

Req: Returns the measured GI50 for the input compound. Input: Cc1cccc(/N=N/c2c(C)nn(C(=O)CC(=O)Nc3ccc(Cl)cc3)c2C)c1
Resp: 80.5 µM (inactive)

Req: Entry to check: COc1ccc(CCN2C(=O)CC34C=CC(CC3C2=O)O4)cc1OC (stereo unspecified)
Resp: > 100 µM (inactive)

Req: Entry to check: Nc1ncnc2sc(Nc3ccccc3)nc12
Resp: > 100 µM (inactive)

Req: Entry to check: COC(=O)[C@@H]1[C@H]2CC[C@]3(C)[C@@H](OC(C)=O)CC[C@H]3[C@@H]2CC[C@H]1C(C)=O
Resp: > 100 µM (inactive)

Req: Entry to check: Cc1nc(Cc2n[nH]c(C)n2)n[nH]1
Resp: > 100 µM (inactive)

Req: Entry to check: O=S(=O)(N/C(=N\O)Nc1ccc(Cl)cc1)c1ccc(S(=O)(=O)c2ccccc2)s1
Resp: 33.7 µM (inactive)

---

Tested on: RXF 393
assayProcedure: NCI tumour cell line growth inhibition, 48 h
Active and inactive are the calls of the source. Rule as the data show it: active = GI50 up to about 1.1 µM and inactive = higher.
Choose one outcome from this list and give only that: True (active), False (inactive)

Req: Identify the outcome logged in this assay for the compound shown: CCOc1ccccc1NC(=O)CCC(=O)OC
Resp: False

Req: Entry to check: CC(=O)c1c2c(cc3c1CC1(C3)Cc3cc4c(c(C(C)=O)c3C1)CCC4)CCC2
Resp: False

Req: Entry to check: Nc1cccc(-c2cc(O)c3cc4c(cc3n2)OCO4)c1
Resp: True

Req: Entry to check: O=C1CCC2(c3ccc(Cl)cc3)Nc3ncccc3N12 (centres undefined)
Resp: False

---

Kindly supply the reported GI50 values for the records listed here.
Test system: SR
assayProcedure: NCI tumour cell line growth inhibition, 48 h
Structures can show the parent of a compound that is named as a salt. Activity calls are given as the source filed them. Cut-off read from the data, not from the text of the source: active = GI50 up to about 1.1 µM and inactive = higher. Peptide text beside a SMILES is read from it. * marks the point of attachment. Cbz = O=C(OCc1ccccc1)*; OBn = c1ccc(CO*)cc1

Req: Returns the measured GI50 for the input molecule. Input: O=C(N/N=C/c1ccc(Cl)cc1)c1cc(I)cc(I)c1O
Resp: 76.6 µM (inactive)

Req: Entry to check: COC1C2c3ccccc3C(C#N)(Cc3ccc4c(c32)OCO4)N1C(=O)c1ccccc1 (stereo not given)
Resp: 14.3 µM (inactive)

Req: Entry to check: Cc1ccc([N+](=O)[O-])cc1S(=O)(=O)Nc1ccc(C2=NNC(c3ccccc3)C2)cc1 (stereo not given)
Resp: 15.1 µM (inactive)

Req: Entry to check: Oc1ccc(-c2c3ccccc3c(-c3ccc(O)cc3)c3ccccc23)cc1
Resp: 64.3 µM (inactive)

Req: Entry to check: COC1(OC)N=C(N)C2(C#N)C(c3ccccc3)NC3=C(CCC3)C12C#N (stereo not given)
Resp: > 100 µM (inactive)

Req: Entry to check: Oc1cc(-c2ccccc2)nc2cc3c(cc12)OCO3
Resp: 3.36 µM (inactive)

Req: Entry to check: O=C(Nc1nccs1)c1cc(C2=CC=CC([N+](=O)[O-])C=C2)nc(S)n1 (stereo not given)
Resp: > 100 µM (inactive)

Req: Entry to check: CCCCOC(=O)CNC(=O)OCCCCC#CC#CCCCCOC(=O)NCC(=O)OCCCC
Resp: > 100 µM (inactive)

Req: Entry to check: c1ccc2c(c1)Sc1ccccc1N2CC1CN2CCC1CC2 (stereo not given)
Resp: 2.58 µM (inactive)

Req: Entry to check: NNC(=O)CCC(=O)Nc1cc(Cl)c(Cl)cc1Cl
Resp: 0.607 µM (active)

Req: Entry to check: CC[C@@]1(C[C@H]2C[C@@]3(C(=O)OC)c4[nH]c5ccccc5c4CCN3C2=S)COC2(CCCCC2)O1
Resp: 4.44 µM (inactive)

Req: Entry to check: N#COc1ccc(Oc2ccccc2)cc1
Resp: 24.3 µM (inactive)

Req: Entry to check: CCOC(=O)CSc1nnc(C(Sc2nc(-c3ccccc3)c(-c3ccccc3)[nH]2)C(C)C)n1-c1ccccc1 (stereo not given)
Resp: 31.2 µM (inactive)

Req: Entry to check: O=[N+]([O-])c1ccc2c(c1)Sc1ccccc1N2CCCCCl
Resp: > 100 µM (inactive)

Req: Entry to check: CCN(CC)CCN1C(=O)C(=O)N(c2cccc3ccccc23)C1=O
Resp: > 10 µM (inactive)

Req: Entry to check: O=c1[nH][nH]c(=O)n1/N=C/c1ccccc1
Resp: > 100 µM (inactive)

Req: Entry to check: N#CCCN(CCC#N)c1ccc(C(/N=N/c2ccc(Cl)cc2)=N\c2ccccc2)cc1
Resp: 16 µM (inactive)

Req: Entry to check: CC(C)/C(Cl)=N\OC(=O)Nc1ccc(F)c([N+](=O)[O-])c1
Resp: 5.65 µM (inactive)

Req: Entry to check: O=C(/C=C/c1ccsc1)c1ccsc1
Resp: 19.5 µM (inactive)

Req: Entry to check: N#CC(/N=N/c1ccccc1C(=O)O)C(N)=O (stereo not given)
Resp: > 100 µM (inactive)

Req: Entry to check: NCCCNCCCCNCCCN [SPERMINE TETRAHYDROCHLORIDE]
Resp: 3.74 µM (inactive)

Req: Entry to check: CCCCCCCCCCCCCCCCP(=O)(O)OP(=O)(O)OCC1OC(n2ccc(N)nc2=O)C(O)C1O (stereo not given)
Resp: 0.323 µM (active)

Req: Entry to check: CC1=C(CO)C2=C(C)C3(CC3)[C@@](C)(O)C(=O)C2=C1
Resp: 0.792 µM (active)

Req: Entry to check: COC(=O)CNC(=O)C(C)NC(=O)C(CC(=O)OCc1ccccc1)NC(=O)OCc1ccccc1 (stereo not drawn) (Cbz-Asp(OBn)-Ala-Gly-OMe; configuration not given here)
Resp: 35.5 µM (inactive)

Req: Entry to check: O=S(=O)(O)/C(=N\c1cccc(Cc2ccccc2)c1)Nc1cccc(Cc2ccccc2)c1
Resp: 21.9 µM (inactive)

Req: Entry to check: COc1ccc(C2CCC(Cl)(OC)CC2C=O)cc1 (stereo not given)
Resp: 41.1 µM (inactive)

Req: Entry to check: CC1=NN(c2nc(N)nc(COc3ccc(N)cc3)n2)C(C)(C)C1
Resp: > 100 µM (inactive)

Req: Entry to check: CC(C(N)C(=O)NC(C(=O)O)C1OC(n2ccc(=O)[nH]c2=O)C(O)C1O)C(O)c1ccc(O)cn1 (stereo not given)
Resp: > 100 µM (inactive)

Req: Entry to check: Nc1ccc(-c2nc3ccc(F)cc3s2)cc1I
Resp: > 76.2 µM (inactive)

Req: Entry to check: Fc1ccccc1C1SCc2nc3ccccc3n21 (stereo not given)
Resp: 38.1 µM (inactive)

Req: Entry to check: C=C1CN(Cc2ccccc2)[C@@H]2CCCCC[C@H](C#N)[C@H]12
Resp: > 47.8 µM (inactive)

Req: Entry to check: CC(=O)OC[C@@]1(C)[C@@H]2[C@@H]3[C@@]4(CO[C@]3(C)C(=O)[C@@]3(O)C[C@H](C)[C@H](OC(C)=O)[C@@H]3[C@H]4OC(C)=O)[C@H](OC(=O)c3ccccc3)C[C@@H]21
Resp: > 100 µM (inactive)

Req: Entry to check: CCOC(=O)Cc1nnc2c(-c3ccccc3)nc3ccccc3n12
Resp: > 100 µM (inactive)

Req: Entry to check: COc1ccc(-c2nc(Nc3ccccc3)sc2Cc2sc(Nc3ccccc3)nc2-c2ccc(OC)cc2)cc1
Resp: 26 µM (inactive)

Req: Entry to check: CC(C)CCOC(=O)NC(Nc1ccc(F)cc1)(C(F)(F)F)C(F)(F)F
Resp: 0.679 µM (active)

---

Test system: M14
assayProcedure: NCI tumour cell line growth inhibition, 48 h
Activity calls are given as the source filed them. Rule as the data show it: active = GI50 up to about 1.1 µM and inactive = higher.
quantityMeasured: GI50

Req: Returns the measured GI50 for the input compound. Input: CCCCCCCCCCN(CCCCCCCCCC)C(=O)COc1c2cc(C(C)(C)C)cc1Cc1cc(C(C)(C)C)cc(c1OCC(=O)N(CCCCCCCCCC)CCCCCCCCCC)Cc1cc(C(C)(C)C)cc(c1OCC(=O)N(CCCCCCCCCC)CCCCCCCCCC)Cc1cc(C(C)(C)C)cc(c1OCC(=O)N(CCCCCCCCCC)CCCCCCCCCC)C2
Resp: 2.92 µM (inactive)

Req: Entry to check: c1ccc2c(c1)Sc1ccccc1N2CC1CN2CCC1CC2 (configuration not stated)
Resp: 1.87 µM (inactive)

Req: Entry to check: CC1(C)CCc2ccc(OCCC(=O)O)cc2O1
Resp: > 100 µM (inactive)

Req: Entry to check: COc1cc(/C=C2\N=C(c3ccccc3)N(c3nc4cc(C)c(C)cc4s3)C2=O)cc(OC)c1OC
Resp: 33.3 µM (inactive)

Req: Entry to check: C(=N\Cc1ccccc1)/c1ccccc1-c1ccccc1/C=N/Cc1ccccc1
Resp: 9.86 µM (inactive)

Req: Entry to check: N=C(N)N/N=C(/c1ccccc1)c1ccc(O)cc1O
Resp: 23 µM (inactive)

Req: Entry to check: CCCNCCCC(NC(C)=O)C(=O)NCc1ccccc1 (configuration not stated)
Resp: > 100 µM (inactive)
